Origin of measurements: patent US20120276102A1

molecular target: T1, human IL-21R expressed on cells (human, UniProt Q9HBE5 20-538); test: cell ELISA, CHO cells
T1 construct: also called human IL-21R-BaF3; human IL-21R-TF1
T1 sequence (Q9HBE5 20-538 limits assumed): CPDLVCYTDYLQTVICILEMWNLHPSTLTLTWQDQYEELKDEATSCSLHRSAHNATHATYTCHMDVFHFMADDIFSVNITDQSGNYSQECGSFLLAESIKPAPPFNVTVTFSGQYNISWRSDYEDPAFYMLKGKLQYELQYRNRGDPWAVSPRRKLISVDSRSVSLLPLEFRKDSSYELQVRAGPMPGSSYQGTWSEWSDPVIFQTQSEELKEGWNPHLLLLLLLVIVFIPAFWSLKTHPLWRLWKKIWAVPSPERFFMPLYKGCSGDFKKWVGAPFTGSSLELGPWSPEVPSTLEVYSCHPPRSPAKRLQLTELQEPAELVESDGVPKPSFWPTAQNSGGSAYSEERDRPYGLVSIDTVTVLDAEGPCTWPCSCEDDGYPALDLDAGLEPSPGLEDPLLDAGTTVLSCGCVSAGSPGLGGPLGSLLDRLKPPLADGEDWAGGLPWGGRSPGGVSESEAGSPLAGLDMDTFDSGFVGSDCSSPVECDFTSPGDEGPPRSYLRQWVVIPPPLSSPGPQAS
# Lookup of reported A450 (13 nM Ab) keyed by entry

>  <BINDER>
AbR (antibody, human IgG1, V domains shown, CDR3 graft, residue limits derived as for m29; also called VH3/VL18; VH3DM/VL18) VH: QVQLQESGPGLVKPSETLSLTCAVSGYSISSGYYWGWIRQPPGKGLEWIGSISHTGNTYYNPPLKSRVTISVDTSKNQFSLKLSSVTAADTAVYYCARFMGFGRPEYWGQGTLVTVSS VL: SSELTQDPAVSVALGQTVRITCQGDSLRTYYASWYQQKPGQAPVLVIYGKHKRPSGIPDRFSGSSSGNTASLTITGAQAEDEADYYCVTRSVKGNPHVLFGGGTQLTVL

>  <A450 (13 nM Ab), A450>
1.33

$$$$
>  <BINDER>
AbH (antibody, IgG1, V domains shown, As for AbA: IgG1/lambda, CDR3 graft, residue limits derived; also called VHP/VL19) VH: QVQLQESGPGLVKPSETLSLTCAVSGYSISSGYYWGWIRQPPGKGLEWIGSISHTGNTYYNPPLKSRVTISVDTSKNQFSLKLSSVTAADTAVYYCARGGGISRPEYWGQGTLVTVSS VL: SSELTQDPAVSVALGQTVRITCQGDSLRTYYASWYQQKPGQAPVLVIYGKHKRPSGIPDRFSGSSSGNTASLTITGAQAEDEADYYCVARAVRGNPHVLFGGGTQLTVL

>  <A450 (13 nM Ab), A450>
1.35

$$$$
